Just for reference, the supplement of paper PMC10567573 is where these values come from.

Recorded measurements of protein stability index, one per entry
B1: ADAMTSL2 (parent)
chain: KKPPEESTCFERPCFKWYTSPWSE

Variants of: B1
Assay: protein stability index of a GFP-peptide fusion (GPS, HEK-293T) (PSI 1-6); higher = more stable;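 also: lentivirally expressed fusions sorted by FACS into six bins by GFP to DsRed ratio, PSI derived from sequencing read proportions per bin multiplied by bin number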
Settings: c terminus: a fixed tail appended

mutation.notation: S23R
protein stability index: 2.22

mutation.notation: R12H
protein stability index: 2.63

mutation.notation: F15H
protein stability index: 2.6

mutation.notation: K16F
protein stability index: 1.9

mutation.notation: F10Y
protein stability index: 2.06

mutation.notation: K1F
protein stability index: 2.59

mutation.notation: E11G
protein stability index: 1.87

mutation.notation: W22S
protein stability index: 3.61

mutation.notation: E11T
protein stability index: 2.05

mutation.notation: W22R
protein stability index: 2.95

mutation.notation: P4S
protein stability index: 2.21

mutation.notation: C9V
protein stability index: 2.82

mutation.notation: E6F
protein stability index: 1.9

mutation.notation: P21R
protein stability index: 2.17

mutation.notation: T8C
protein stability index: 2.17

mutation.notation: K1G
protein stability index: 2.34

mutation.notation: K2I
protein stability index: 1.78

mutation.notation: W17M
protein stability index: 2.9

mutation.notation: P21H
protein stability index: 2.46

mutation.notation: T8A
protein stability index: 2.75

mutation.notation: E5C
protein stability index: 2.32

mutation.notation: C14K
protein stability index: 2.69
